- Tested on: Coxsackie virus A16 (CoxA16)
- procedure text: Influences of drugs on virus-induced CPE (antiviral effective rate, MTT), CoxA16
- Assay type: cell-based
- condition notes: CoxA16, Vero cells, 100TCID50, drug at nearly the maximum non-cytotoxic concentration
Marks after values point to notes of the source that are not given here.
value kind: antiviral effective rate (ER %)

Known antiviral effective rate (ER %) results, listed for orientation:
# compound, test value
records = [
    ("COc1cc([C@H]2OC[C@H]3[C@@H]2CO[C@H]3c2ccc(OC)c(OC)c2)ccc1O", "97.03** %"),
    ("CCOC(=O)C1=C[C@@H](OC(CC)CC)[C@H](NC(C)=O)[C@@H](N)C1 [Oseltamivir phosphate, reference compound]", "2.94%"),
    ("COc1cc(C2OCC3C(c4ccc(OC5OC(C(=O)O)C(O)C(O)C5O)c(OC)c4)OCC23)ccc1O (stereo not drawn)", "100.00** %"),
]

[Q] What value of antiviral effective rate (ER %) on Coxsackie virus A16 (CoxA16) does NC(=O)c1ncn([C@@H]2O[C@H](CO)[C@@H](O)[C@H]2O)n1 [Ribavirin, reference compound] have?
[A] 0.72%

[Q] Which antiviral effective rate (ER %) is reported with Coxsackie virus A16 (CoxA16) for this entry: COc1cc(C2OCC3C(c4ccc5c(c4)OCO5)OCC23)ccc1OC1OC(C(=O)O)C(O)C(O)C1O (stereo not drawn) ?
[A] 100.00** %

[Q] I'm curious: which antiviral effective rate (ER %) was measured for COc1ccc(C2OCC3C(c4ccc(OC5OC(C(=O)O)C(O)C(O)C5O)c(O)c4)OCC23)cc1OC (stereo not drawn) tested on Coxsackie virus A16 (CoxA16)?
[A] 99.25** %

----------
- Tested on: Vero cells
- condition notes: 72 hours, MTT, Probit regression
Define the label as YES when Maximum non-cytotoxic concentration (TC0) is strictly less than 0.1 g/L and as NO in all remaining cases.

Reference set, count: 3
# molecule, system name, qualitative label
measured = [
    ("COc1cc([C@H]2OC[C@H]3[C@@H]2CO[C@H]3c2ccc(OC)c(OC)c2)ccc1O [Phillygenin]", "Vero cells", "YES"),
    ("COc1cc(C2OCC3C(c4ccc(OC5OC(C(=O)O)C(O)C(O)C5O)c(OC)c4)OCC23)ccc1O (centres unmarked) [Compound I]", "Vero cells", "NO"),
    ("CCOC(=O)C1=C[C@@H](OC(CC)CC)[C@H](NC(C)=O)[C@@H](N)C1 [Oseltamivir phosphate, reference compound]", "Vero cells", "NO"),
]

Could you now look at the following molecule, please?
[Q] Maximum non-cytotoxic concentration (TC0) strictly < 0.1 g/L for this molecule? COc1cc(C2OCC3C(c4ccc5c(c4)OCO5)OCC23)ccc1OC1OC(C(=O)O)C(O)C(O)C1O (centres unmarked) [Compound III]
[A] YES

----------
- Test system: Coxsackie virus B3 (CVB3)
- procedure text: Influences of drugs on virus-induced CPE (antiviral effective rate, MTT), CVB3
- Type: cell-based
- condition notes: CVB3, Vero cells, 100TCID50, drug at nearly the maximum non-cytotoxic concentration
value kind: antiviral effective rate (ER %)
Numeric answer only, unit % assumed.

Reference set (5 entries):
# molecule, unit name, antiviral effective rate (ER %)
records = [
    ("CCOC(=O)C1=C[C@@H](OC(CC)CC)[C@H](NC(C)=O)[C@@H](N)C1 [Oseltamivir phosphate, reference compound]", "%", 1.53),
    ("COc1cc([C@H]2OC[C@H]3[C@@H]2CO[C@H]3c2ccc(OC)c(OC)c2)ccc1O [Phillygenin]", "%", 2.29),
    ("NC(=O)c1ncn([C@@H]2O[C@H](CO)[C@@H](O)[C@H]2O)n1 [Ribavirin, reference compound]", "%", 12.14),
    ("COc1cc(C2OCC3C(c4ccc(OC5OC(C(=O)O)C(O)C(O)C5O)c(OC)c4)OCC23)ccc1O (stereo not drawn) [Compound I]", "%", 10.16),
    ("COc1ccc(C2OCC3C(c4ccc(OC5OC(C(=O)O)C(O)C(O)C5O)c(O)c4)OCC23)cc1OC (stereo not drawn) [Compound II]", "%", 11.18),
]

Turning now to a further molecule:
[Q] Fill blank: measured antiviral effective rate (ER %) of the molecule COc1cc(C2OCC3C(c4ccc5c(c4)OCO5)OCC23)ccc1OC1OC(C(=O)O)C(O)C(O)C1O (stereo not drawn) [Compound III] is ____.
[A] 9.63
